Origin of the recorded values: ChEMBL document CHEMBL1136586

SUBJECT_OF_TEST: Melanocyte-stimulating hormone receptor (Homo sapiens, UniProt Q01726)
Sequence (Q01726 whole entry): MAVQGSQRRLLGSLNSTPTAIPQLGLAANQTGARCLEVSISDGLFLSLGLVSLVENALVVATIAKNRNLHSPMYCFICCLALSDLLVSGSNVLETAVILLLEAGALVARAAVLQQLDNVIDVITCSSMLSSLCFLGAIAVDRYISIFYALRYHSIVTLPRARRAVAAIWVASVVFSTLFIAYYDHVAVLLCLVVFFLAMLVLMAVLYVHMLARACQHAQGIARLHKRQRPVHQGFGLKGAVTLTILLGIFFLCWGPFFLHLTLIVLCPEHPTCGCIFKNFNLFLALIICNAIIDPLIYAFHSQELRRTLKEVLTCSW
TEST_METHOD_NOTES: Inhibitory concentration of compound was determined against hMC1R through displacement of NDP-MSH radioligand using HEK293 cells
Type: cell-based
Square brackets hold non-standard residues; d marks the D form. Peptide text beside a SMILES is read from it. * marks the point of attachment. Phe(3-CF3) = N[C@@H](Cc1cccc(C(F)(F)F)c1)C(=O)O; Butyryl = CCCC(=O)*
READOUT: IC50 (nM)

Solved cases below.
Problem: In one line, give reported IC50 of the entry CCCC(=O)N[C@@H](Cc1cnc[nH]1)C(=O)N[C@@H](Cc1cccc(C(F)(F)F)c1)C(=O)N[C@@H](CCCNC(=N)N)C(=O)N[C@@H](Cc1c[nH]c2ccccc12)C(=O)NCC(N)=O (Butyryl-H[Phe(3-CF3)]RWG-NH2) .
Result: 9600

Problem: In one line, give reported IC50 of the entry CCCC(=O)N[C@@H](Cc1c[nH]cn1)C(=O)N[C@H](Cc1ccc2ccccc2c1)C(=O)N[C@@H](CCCN=C(N)N)C(=O)N[C@@H](Cc1c[nH]c2ccccc12)C(=O)NCC(N)=O .
Result: 5000

Problem: In one line, give reported IC50 of the entry CCCC(=O)N[C@@H](Cc1cnc[nH]1)C(=O)N[C@H](Cc1ccccc1)C(=O)N[C@@H](CCCNC(=N)N)C(=O)N[C@@H](Cc1csc2ccccc12)C(=O)NCC(N)=O .
Result: 2880

[P] CCCC(=O)N[C@@H](Cc1c[nH]cn1)C(=O)N[C@@H](Cc1ccc(OC)cc1)C(=O)N[C@@H](CCCN=C(N)N)C(=O)N[C@@H](Cc1c[nH]c2ccccc12)C(=O)NCC(N)=O (Butyryl-HY(Me)RWG-NH2)
[Q] CCCC(=O)N[C@@H](Cc1cnc[nH]1)C(=O)N[C@@H](Cc1ccccc1)C(=O)N[C@@H](CCCNC(=N)N)C(=O)N[C@@H](Cc1c[nH]c2ccccc12)C(=O)NCC(N)=O
Problem: P or Q : whose IC50 is greater? # reply format: chosen label
Result: Q
(Q: 575 nM, P: 70 nM)
